All figures here come from ChEMBL document CHEMBL1137007.

Tested on: Mus musculus
run.description: Analgesic activity in Wister albino mice at 20 mg/kg, po after 3 hrs by tail-flick test
measured.property: Activity (%)
Numbers only; they are read as %.

Example entries begin here.
| compound | assayed.target | units.symbol | Activity |
| --- | --- | --- | --- |
| CN1CCN(c2ccc(-c3c4c(=O)[nH]c(=S)[nH]c4nc4[nH]c(=S)sc(=N)c34)cc2)CC1 | Mus musculus | % | 38 |
| Nc1ncnc2nc3[nH]c(=S)[nH]c(=O)c3c(-c3ccc(N4CCOCC4)cc3)c12 | Mus musculus | % | 36 |

Reported Activity, compound Nc1nc(=O)[nH]c2nc3[nH]c(=S)[nH]c(=O)c3c(-c3ccc(N4CCCCC4)cc3)c12 : ____
44

Please give the measured Activity for this compound: Nc1ncnc2nc3[nH]c(=S)[nH]c(=O)c3c(-c3ccc(N4CCCCC4)cc3)c12
38

Fill blank: measured Activity of the compound N#Cc1c(N)nc2[nH]c(=S)[nH]c(=O)c2c1-c1ccc(N2CCOCC2)cc1 is ____.
43

// returns reported Activity for input N#Cc1c(N)nc2[nH]c(=S)[nH]c(=O)c2c1-c1ccc(N2CCCCC2)cc1
47

GET /values?readout=Activity&item= CN1CCN(c2ccc(-c3c4c(N)ncnc4nc4[nH]c(=S)[nH]c(=O)c34)cc2)CC1
43

So what does the record say about Activity for CN1CCN(c2ccc(-c3c(C#N)c(N)nc4[nH]c(=S)[nH]c(=O)c34)cc2)CC1 ?
52

Reported Activity, compound N=c1sc(=S)[nH]c2nc3[nH]c(=S)[nH]c(=O)c3c(-c3ccc(N4CCOCC4)cc3)c12 : ____
44

I have this compound here, O=c1[nH]cnc2nc3[nH]c(=S)[nH]c(=O)c3c(-c3ccc(N4CCCCC4)cc3)c12 , and I need its recorded Activity.
39
